# Assay Procedure: Inhibition of chymotrypsin-like activity of 20S proteasome in human LCL cells after 12 hrs
Peptide text beside a SMILES is read from it. * marks the point of attachment. Cbz = O=C(OCc1ccccc1)*
Property: IC50 (µM)
Entry rule: numbers only, all in µM.

>  <Molecule>
CC(C)C[C@@H](/C=C/C(=O)n1cccc1)NC(=O)[C@H](CC(C)C)NC(=O)[C@H](CC(C)C)NC(=O)OCc1ccccc1

>  <Property>
IC50

>  <Unit Label>
µM

>  <Assay Value>
7.89

$$$$
>  <Molecule>
Cc1c(O)cccc1C(=O)N[C@@H](CC(C)C)C(=O)N[C@@H](CC(C)C)C(=O)N[C@H](/C=C/C(=O)n1cccc1)CC(C)C

>  <Property>
IC50

>  <Unit Label>
µM

>  <Assay Value>
3.63

$$$$
>  <Molecule>
CC[C@H](C)[C@H](NC(=O)[C@H]([C@@H](C)CC)N(C)C(C)=O)C(=O)N[C@H](C(=O)N[C@@H](CC(C)C)C(=O)[C@@]1(C)CO1)[C@@H](C)O

>  <Property>
IC50

>  <Unit Label>
µM

>  <Assay Value>
0.005

$$$$
>  <Molecule>
CC(C)C[C@@H](/C=C/C(=O)n1cccc1)NC(=O)[C@H](CO)NC(=O)[C@@H](NC(=O)CCCCCCCNC(=O)OCc1ccccc1)C(C)C

>  <Property>
IC50

>  <Unit Label>
µM

>  <Assay Value>
5.08

$$$$

Give the reported IC50 for this molecule. CC(C)C[C@@H](C=O)NC(=O)[C@H](CC(C)C)NC(=O)[C@H](CC(C)C)NC(=O)OCc1ccccc1 [MG-132] (Cbz-Leu-Leu-Leu-aldehyde)
0.002
